pKi: −log10 of the molar value.
Recorded pKi for compounds tested on D(1B) dopamine receptor (Homo sapiens, UniProt P21918), drawn from a number of studies.
Sequence (P21918 whole entry): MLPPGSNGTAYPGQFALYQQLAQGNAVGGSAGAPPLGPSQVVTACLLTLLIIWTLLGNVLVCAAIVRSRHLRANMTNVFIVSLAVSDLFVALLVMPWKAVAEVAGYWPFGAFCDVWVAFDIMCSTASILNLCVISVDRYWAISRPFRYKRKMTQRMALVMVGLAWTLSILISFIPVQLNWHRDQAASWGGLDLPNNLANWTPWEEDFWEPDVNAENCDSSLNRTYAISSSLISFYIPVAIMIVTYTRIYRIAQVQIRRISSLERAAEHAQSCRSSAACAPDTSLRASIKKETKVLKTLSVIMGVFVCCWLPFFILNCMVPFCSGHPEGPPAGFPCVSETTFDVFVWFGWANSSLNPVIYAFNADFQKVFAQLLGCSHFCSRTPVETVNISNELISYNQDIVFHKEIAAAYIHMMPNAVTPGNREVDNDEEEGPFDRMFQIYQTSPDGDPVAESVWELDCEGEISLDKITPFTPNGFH

- cpd-smiles: "Nc1nc(Cl)ncc1-c1c[nH]c2cccc(O)c12"
  pKi: "< 5.00"
- cpd-smiles: "O=C1CCc2ccc(OCCCCN3CCCN(c4ccc(O)c5[nH]c(=O)ccc45)CC3)cc2N1"
  pKi: "< 4.70"
- cpd-smiles: "OCCOCCN1CCN(C2=Nc3ccccc3Sc3ccccc32)CC1"
  pKi: "< 6.00"
- cpd-smiles: "COc1cccc2[nH]cc(-c3ccnc(N)n3)c12"
  pKi: "< 5.00"

Value of pKi reported for the compound COc1ccc(NC(=O)N2CCN(c3ccc(F)cc3)CC2)cc1N1CCN(C)CC1 is < 5.00
